# experimental target: human β3 adrenergic receptor (Homo sapiens, UniProt P13945)
# Construct: expressed in transfected cells; host or cells: Chinese hamster ovary (CHO) cells, stably transfected
# Sequence (P13945 whole entry): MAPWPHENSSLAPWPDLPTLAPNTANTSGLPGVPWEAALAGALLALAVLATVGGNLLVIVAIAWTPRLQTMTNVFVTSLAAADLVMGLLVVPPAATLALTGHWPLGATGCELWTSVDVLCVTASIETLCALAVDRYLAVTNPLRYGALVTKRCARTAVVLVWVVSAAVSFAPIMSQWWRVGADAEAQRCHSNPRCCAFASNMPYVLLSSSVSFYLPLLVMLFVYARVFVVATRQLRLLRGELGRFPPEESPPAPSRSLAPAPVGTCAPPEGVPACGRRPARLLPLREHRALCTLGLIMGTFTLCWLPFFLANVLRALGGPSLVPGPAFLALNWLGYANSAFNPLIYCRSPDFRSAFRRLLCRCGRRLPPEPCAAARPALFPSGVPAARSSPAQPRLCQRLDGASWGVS
# assay remarks: Beta-3 agonist in vitro functional assay: cAMP production (LANCE TR-FRET) in CHO cells stably transfected with the cloned β3 receptor
# Type: cell-based
# condition notes: Table 9; Beta-3 agonist in vitro functional assay; read-out: Human β3 agonist functional activity
pEC50: −log10 of the molar value.
observable: pEC50

What value of pEC50 on human β3 adrenergic receptor (Homo sapiens, UniProt P13945) does O=C(c1ccccc1)N1CCN(C(=O)c2ccc(C[C@@H]3CC[C@H]([C@H](O)c4ccccc4)N3)cc2)CC1 have? 6.00 to 7.00

What value of pEC50 on human β3 adrenergic receptor (Homo sapiens, UniProt P13945) does O=C(c1ccc(C[C@@H]2CC[C@H]([C@H](O)c3ccccc3)N2)cc1)N1CCN(c2ncccc2Cl)CC1 have? 7.00 to 8.00

What value of pEC50 on human β3 adrenergic receptor (Homo sapiens, UniProt P13945) does O=C(O)[C@@H]1CCCN1C(=O)CN1CCN(C(=O)c2ccc(C[C@@H]3CC[C@H]([C@H](O)c4ccccc4)N3)cc2)CC1 have? 6.00 to 7.00

What value of pEC50 on human β3 adrenergic receptor (Homo sapiens, UniProt P13945) does COc1cccnc1CN1CCN(C(=O)c2ccc(C[C@@H]3CC[C@H]([C@H](O)c4ccccc4)N3)cc2)CC1 have? 7.00 to 8.00

What value of pEC50 on human β3 adrenergic receptor (Homo sapiens, UniProt P13945) does C[C@@H](c1ccccn1)N1CCN(C(=O)c2ccc(C[C@@H]3CC[C@H]([C@H](O)c4ccccc4)N3)cc2)CC1 have? 7.00 to 8.00

What value of pEC50 on human β3 adrenergic receptor (Homo sapiens, UniProt P13945) does O=C(c1ccc(C[C@@H]2CC[C@H]([C@H](O)c3ccccc3)N2)cc1)N1CCN(Cc2nc3ccccc3s2)CC1 have? 7.00 to 8.00

What value of pEC50 on human β3 adrenergic receptor (Homo sapiens, UniProt P13945) does O=C(c1ccc(C[C@@H]2CC[C@H]([C@H](O)c3ccccc3)N2)cc1)N1CCN(c2ncccc2-c2ccc(F)cc2)CC1 have? 7.00 to 8.00

What value of pEC50 on human β3 adrenergic receptor (Homo sapiens, UniProt P13945) does O=C(c1ccc(C[C@@H]2CC[C@H]([C@H](O)c3ccccc3)N2)cc1)N1CCN(c2nccc3ccccc23)CC1 have? 7.00 to 8.00

What value of pEC50 on human β3 adrenergic receptor (Homo sapiens, UniProt P13945) does O=C(c1ccc(C[C@@H]2CC[C@H]([C@H](O)c3ccccc3)N2)cc1)N1CCN(c2nccc(-c3ccccc3)n2)CC1 have? 7.00 to 8.00

What value of pEC50 on human β3 adrenergic receptor (Homo sapiens, UniProt P13945) does O=C(c1ccc(C[C@@H]2CC[C@H]([C@H](O)c3ccccc3)N2)cc1)N1CCN(C2(c3ccccn3)CC2)CC1 have? 6.00 to 7.00

What value of pEC50 on human β3 adrenergic receptor (Homo sapiens, UniProt P13945) does O=C(c1ccc(C[C@@H]2CC[C@H]([C@H](O)c3ccccc3)N2)cc1)N1CCN(Cc2n[nH]c3ncccc23)CC1 have? 7.00 to 8.00

What value of pEC50 on human β3 adrenergic receptor (Homo sapiens, UniProt P13945) does O=C(c1ccc(C[C@@H]2CC[C@H]([C@H](O)c3ccccc3)N2)cc1)N1CCN(c2ccccc2O)CC1 have? 7.00 to 8.00

What value of pEC50 on human β3 adrenergic receptor (Homo sapiens, UniProt P13945) does Cc1cccnc1N1CCN(C(=O)c2ccc(C[C@@H]3CC[C@H]([C@H](O)c4ccccc4)N3)cc2)CC1 have? 7.00 to 8.00

What value of pEC50 on human β3 adrenergic receptor (Homo sapiens, UniProt P13945) does CC(c1nn[nH]n1)N1CCN(C(=O)c2ccc(C[C@@H]3CC[C@H]([C@H](O)c4ccccc4)N3)cc2)CC1 (stereo partly drawn) have? 7.00 to 8.00

What value of pEC50 on human β3 adrenergic receptor (Homo sapiens, UniProt P13945) does O=C(c1ccc(C[C@@H]2CC[C@H]([C@H](O)c3cccnc3)N2)cc1)N1CCN(c2nccc(-c3ccccc3)n2)CC1 have? 7.00 to 8.00

What value of pEC50 on human β3 adrenergic receptor (Homo sapiens, UniProt P13945) does O=C(c1ccc(C[C@@H]2CC[C@H]([C@H](O)c3ccccc3)N2)cc1)N1CCN(Cc2c(F)cccc2F)CC1 have? 8.00 to 9.00

What value of pEC50 on human β3 adrenergic receptor (Homo sapiens, UniProt P13945) does O=C(c1ccc(C[C@@H]2CC[C@H]([C@H](O)c3ccccc3)N2)cc1)N1CCN(Cc2cnn(-c3ccccc3)n2)CC1 have? 8.00 to 9.00

What value of pEC50 on human β3 adrenergic receptor (Homo sapiens, UniProt P13945) does CC(C)Oc1cccnc1CN1CCN(C(=O)c2ccc(C[C@@H]3CC[C@H]([C@H](O)c4ccccc4)N3)cc2)CC1 have? 7.00 to 8.00

What value of pEC50 on human β3 adrenergic receptor (Homo sapiens, UniProt P13945) does O=C(c1ccc(C[C@@H]2CC[C@H]([C@H](O)c3ccccc3)N2)cc1)N1CCN(Cc2noc3ccccc23)CC1 have? 8.00 to 9.00

What value of pEC50 on human β3 adrenergic receptor (Homo sapiens, UniProt P13945) does CN(C)C(=O)CN1CCN(C(=O)c2ccc(C[C@@H]3CC[C@H]([C@H](O)c4ccccc4)N3)cc2)CC1 have? 6.00 to 7.00

What value of pEC50 on human β3 adrenergic receptor (Homo sapiens, UniProt P13945) does CC(c1nnco1)N1CCN(C(=O)c2ccc(C[C@@H]3CC[C@H]([C@H](O)c4ccccc4)N3)cc2)CC1 (stereo partly drawn) have? 7.00 to 8.00

What value of pEC50 on human β3 adrenergic receptor (Homo sapiens, UniProt P13945) does O=C(c1ccc(C[C@@H]2CC[C@H]([C@H](O)c3ccccc3)N2)cc1)N1CCN(Cc2ccn[nH]2)CC1 have? 7.00 to 8.00

What value of pEC50 on human β3 adrenergic receptor (Homo sapiens, UniProt P13945) does O=C(c1ccc(C[C@@H]2CC[C@H]([C@H](O)c3ccccc3)N2)cc1)N1CCN(Cc2nccc3ccccc23)CC1 have? 7.00 to 8.00

What value of pEC50 on human β3 adrenergic receptor (Homo sapiens, UniProt P13945) does O=C(c1ccc(C[C@@H]2CC[C@H]([C@H](O)c3ccccc3)N2)cc1)N1CCN(Cc2ncccc2O)CC1 have? 7.00 to 8.00

What value of pEC50 on human β3 adrenergic receptor (Homo sapiens, UniProt P13945) does Cn1ncnc1CN1CCN(C(=O)c2ccc(C[C@@H]3CC[C@H]([C@H](O)c4ccccc4)N3)cc2)CC1 have? 7.00 to 8.00

What value of pEC50 on human β3 adrenergic receptor (Homo sapiens, UniProt P13945) does O=C(O)c1csc(N2CCN(C(=O)c3ccc(C[C@@H]4CC[C@H]([C@H](O)c5ccccc5)N4)cc3)CC2)n1 have? 5.52 to 6.00

What value of pEC50 on human β3 adrenergic receptor (Homo sapiens, UniProt P13945) does Cc1nonc1N1CCN(C(=O)c2ccc(C[C@@H]3CC[C@H]([C@H](O)c4ccccc4)N3)cc2)CC1 have? 7.00 to 8.00
